Tested on: Staphylococcus aureus ATCC 10537
Test: Antibacterial activity MIC, two-fold agar dilution
Format: cell-based
Settings: ATCC10537; Staphylococcus aureus ATCC 10537; Muller-Hinton agar, 37° C., 20 hours; read-out: Antibacterial Activity MIC
Provide the reported MIC of each item.
Numbers only, in µg/mL.

- compound: "CCO/N=C(\\C(=O)N[C@@H]1C(=O)N2C(C(=O)[O-])=C(CSc3cc(N)[n+](C)c(N)n3)CS[C@H]12)c1nsc(N)n1 [Compound I-10]"
  test-target: "Staphylococcus aureus ATCC 10537"
  test-readout: "MIC"
  unit-descriptor: "µg/mL"
  measured-result: 0.5
- compound: "CC[n+]1c(SCC2=C(C(=O)[O-])N3C(=O)[C@@H](NC(=O)/C(=N\\OC)c4csc(N)n4)[C@H]3SC2)cc(N)nc1N [Compound I-8]"
  test-target: "Staphylococcus aureus ATCC 10537"
  test-readout: "MIC"
  unit-descriptor: "µg/mL"
  measured-result: 1

Could you now look at the following compound, please?
Problem: // map CC[n+]1c(SCC2=C(C(=O)[O-])N3C(=O)[C@@H](NC(=O)/C(=N\OC(C)(C)C(=O)O)c4csc(N)n4)[C@H]3SC2)cc(N)nc1N [Compound I-2] to recorded MIC (system: Staphylococcus aureus ATCC 10537)
Solution: 4
